Every entry's value here was drawn from paper PMC8000041.

Reported values of Tmax for individual entries
test: Plasma metabolites and pharmacokinetics after single intake of lemon or orange extract (UPLC-ESI-QTOF-MS, non-compartmental analysis); format: in vivo, human; conditions: after orange (hesperidin) extract, mean ± SD
Record the value in h, omitting the unit from your answer.

The examples below pair each entry with its known result.
O=C1CC(c2ccc(OC3OC(C(=O)O)C(O)C(O)C3O)cc2)Oc2cc(O)cc(O)c21 (centres unmarked) [M5, Naringenin 4′-O-glucuronide]    7.7
COc1ccc(C2CC(=O)c3c(O)cc(O)cc3O2)cc1OS(=O)(=O)O (centres unmarked) [M14, Hesperetin 3′-O-sulfate]    8.4

Exercise: Any idea what Tmax was measured for COc1ccc(C2CC(=O)c3c(O)cc(O)cc3O2)cc1OC1OC(C(=O)O)C(O)C(O)C1O (centres unmarked) [M8, Hesperetin 3′-O-glucuronide] ?
Solution: 8.4

Exercise: Any idea what Tmax was measured for COc1ccc(C2CC(=O)c3c(O)cc(OC4OC(C(=O)O)C(O)C(O)C4O)cc3O2)cc1O (centres unmarked) [M7, Hesperetin 7-O-glucuronide] ?
Solution: 8.3

Exercise: Any idea what Tmax was measured for O=C1CC(c2ccc(O)cc2)Oc2cc(OC3OC(C(=O)O)C(O)C(O)C3O)cc(O)c21 (centres unmarked) [M3, Naringenin 7-O-glucuronide] ?
Solution: 7.3

* * *

Reported values of Tmax for individual entries
assay: Plasma metabolites and pharmacokinetics after single intake of lemon or orange extract (UPLC-ESI-QTOF-MS, non-compartmental analysis); format: in vivo, human; settings: human, oral, 1.95 g, after orange (hesperidin) extract, mean ± SD, read-out: Tmax
Record the result as number plus unit.

O=C1CC(c2ccc(O)cc2)Oc2cc(OC3OC(C(=O)O)C(O)C(O)C3O)cc(O)c21 (centres unmarked) [M3, Naringenin 7-O-glucuronide]    7.5 h

Exercise: Any idea what Tmax was measured for COc1ccc(C2CC(=O)c3c(O)cc(O)cc3O2)cc1OS(=O)(=O)O (centres unmarked) [M14, Hesperetin 3′-O-sulfate] ?
Solution: 8.5 h

Exercise: Any idea what Tmax was measured for COc1ccc(C2CC(=O)c3c(O)cc(O)cc3O2)cc1OC1OC(C(=O)O)C(O)C(O)C1O (centres unmarked) [M8, Hesperetin 3′-O-glucuronide] ?
Solution: 8.5 h

Exercise: Any idea what Tmax was measured for O=C1CC(c2ccc(OC3OC(C(=O)O)C(O)C(O)C3O)cc2)Oc2cc(O)cc(O)c21 (centres unmarked) [M5, Naringenin 4′-O-glucuronide] ?
Solution: 7.5 h

Exercise: Any idea what Tmax was measured for COc1ccc(C2CC(=O)c3c(O)cc(OC4OC(C(=O)O)C(O)C(O)C4O)cc3O2)cc1O (centres unmarked) [M7, Hesperetin 7-O-glucuronide] ?
Solution: 8.5 h

* * *

test: Plasma metabolites and pharmacokinetics after single intake of lemon or orange extract (UPLC-ESI-QTOF-MS, non-compartmental analysis); type: in vivo, human; conditions: human, oral, 3.1 g, after lemon extract, mean ± SD
Reported values of log10(Cmax) for individual entries
Hello, just confirming the data are log10 of Cmax with units of nM.

O=C1CC(c2ccc(O)cc2)Oc2cc(OC3OC(C(=O)O)C(O)C(O)C3O)cc(O)c21 (centres unmarked) [M3, Naringenin 7-O-glucuronide]    1.75
O=C1CC(c2ccc(OC3OC(C(=O)O)C(O)C(O)C3O)c(O)c2)Oc2cc(O)cc(O)c21 (centres unmarked) [M4, Eriodictyol glucuronide-3]    2.81

Exercise: Any idea what log10(Cmax) was measured for O=C1CC(c2ccc(O)c(OC3OC(C(=O)O)C(O)C(O)C3O)c2)Oc2cc(O)cc(O)c21 (centres unmarked) [M2, Eriodictyol glucuronide-2] ?
Solution: 2.94

Exercise: Any idea what log10(Cmax) was measured for COc1ccc(C2CC(=O)c3c(O)cc(OC4OC(C(=O)O)C(O)C(O)C4O)cc3O2)cc1O (centres unmarked) [M7, Hesperetin 7-O-glucuronide] ?
Solution: 2.23

Exercise: Any idea what log10(Cmax) was measured for COc1ccc(C2CC(=O)c3c(O)cc(O)cc3O2)cc1OS(=O)(=O)O (centres unmarked) [M14, Hesperetin 3′-O-sulfate] ?
Solution: 2.72

Exercise: Any idea what log10(Cmax) was measured for COc1ccc(C2CC(=O)c3c(O)cc(O)cc3O2)cc1OC1OC(C(=O)O)C(O)C(O)C1O (centres unmarked) [M8, Hesperetin 3′-O-glucuronide] ?
Solution: 2.30

Exercise: Any idea what log10(Cmax) was measured for O=C1CC(c2ccc(O)c(O)c2)Oc2cc(OC3OC(C(=O)O)C(O)C(O)C3O)cc(O)c21 (centres unmarked) [M1, Eriodictyol glucuronide-1] ?
Solution: 2.02

Exercise: Any idea what log10(Cmax) was measured for O=C1CC(c2ccc(OC3OC(C(=O)O)C(O)C(O)C3O)cc2)Oc2cc(O)cc(O)c21 (centres unmarked) [M5, Naringenin 4′-O-glucuronide] ?
Solution: 1.55

* * *

experiment: Plasma metabolites and pharmacokinetics after single intake of lemon or orange extract (UPLC-ESI-QTOF-MS, non-compartmental analysis); format: in vivo, human; conditions: human, oral, 3.1 g, after lemon extract, mean ± SD, read-out: Tmax
ASSAY_METRIC: Tmax (h)
Record the value in h, omitting the unit from your answer.

The examples below pair each entry with its known result.
COc1ccc(C2CC(=O)c3c(O)cc(O)cc3O2)cc1OS(=O)(=O)O (centres unmarked) [M14, Hesperetin 3′-O-sulfate]    6.5
O=C1CC(c2ccc(O)c(OC3OC(C(=O)O)C(O)C(O)C3O)c2)Oc2cc(O)cc(O)c21 (centres unmarked) [M2, Eriodictyol glucuronide-2]    6
O=C1CC(c2ccc(O)c(O)c2)Oc2cc(OC3OC(C(=O)O)C(O)C(O)C3O)cc(O)c21 (centres unmarked) [M1, Eriodictyol glucuronide-1]    6
COc1ccc(C2CC(=O)c3c(O)cc(O)cc3O2)cc1OC1OC(C(=O)O)C(O)C(O)C1O (centres unmarked) [M8, Hesperetin 3′-O-glucuronide]    6.5
O=C1CC(c2ccc(O)cc2)Oc2cc(OC3OC(C(=O)O)C(O)C(O)C3O)cc(O)c21 (centres unmarked) [M3, Naringenin 7-O-glucuronide]    5.5

Exercise: Any idea what Tmax was measured for O=C1CC(c2ccc(OC3OC(C(=O)O)C(O)C(O)C3O)cc2)Oc2cc(O)cc(O)c21 (centres unmarked) [M5, Naringenin 4′-O-glucuronide] ?
Solution: 5.5

Exercise: Any idea what Tmax was measured for COc1ccc(C2CC(=O)c3c(O)cc(OC4OC(C(=O)O)C(O)C(O)C4O)cc3O2)cc1O (centres unmarked) [M7, Hesperetin 7-O-glucuronide] ?
Solution: 6.5

Exercise: Any idea what Tmax was measured for O=C1CC(c2ccc(OC3OC(C(=O)O)C(O)C(O)C3O)c(O)c2)Oc2cc(O)cc(O)c21 (centres unmarked) [M4, Eriodictyol glucuronide-3] ?
Solution: 6

* * *

assay: Urinary excretion of flavanone-derived metabolites after single intake of lemon or orange extract (UPLC-ESI-QTOF-MS); type: in vivo, human; details: orange extract, urine fraction 10-24 h, mean ± SD
ASSAY_METRIC: Urinary excretion F4 (µg/mg creatinine)
Record the value in µg/mg creatinine, omitting the unit from your answer.

O=C1CC(c2ccc(OC3OC(C(=O)O)C(O)C(O)C3O)c(O)c2)Oc2cc(O)cc(O)c21 (stereo not drawn) [M4, Eriodictyol glucuronide-3]    2.1
O=C1CC(c2ccc(O)c(O)c2)Oc2cc(OC3OC(C(=O)O)C(O)C(O)C3O)cc(O)c21 (stereo not drawn) [M1, Eriodictyol glucuronide-1]    0.05
COc1ccc(C2CC(=O)c3c(O)cc(OC4OC(C(=O)O)C(O)C(O)C4O)cc3O2)cc1O (stereo not drawn) [M7, Hesperetin 7-O-glucuronide]    1.1
O=C1CC(c2ccc(O)cc2)Oc2cc(OC3OC(C(=O)O)C(O)C(O)C3O)cc(O)c21 (stereo not drawn) [M3, Naringenin 7-O-glucuronide]    0.2
O=C1CC(c2ccc(OC3OC(C(=O)O)C(O)C(O)C3O)cc2)Oc2cc(O)cc(O)c21 (stereo not drawn) [M5, Naringenin 4′-O-glucuronide]    0.3

As a next step, examine the compound that follows.
Exercise: Any idea what Urinary excretion F4 was measured for COc1ccc(C2CC(=O)c3c(O)cc(O)cc3O2)cc1OS(=O)(=O)O (stereo not drawn) [M14, Hesperetin 3′-O-sulfate] ?
Solution: 0.6
